Reported growth inhibition by item:
Procedure text: NCI Yeast Anticancer Drug Screen. Data for the mec2-1 strain (AID 157)
Condition info: S. cerevisiae mec2-1 strain, at 50.0 µM, hits give high values
About 79,000 compounds went through this panel and 15% of them were active in at least one assay; those are over-represented in the sample as a whole.
Endpoint label: growth inhibition (%)

1. Nc1ncnc2c1ncn2-c1ccccc1Cl    8.35
2. CCCCCCCCCCCCCCCC[Si](Cl)(Cl)Cl    -10.7
3. CC1=NC(C(=O)O)CC1C (stereo not given)    4
4. COCNC(=O)NCC(F)(F)C(F)(F)C(F)(F)C(F)(F)C(F)(F)C(F)(F)C(F)(F)F    7.6
5. CC(C)(C)OC(=O)NO    2.9
6. C=CC(O)CCCC (stereo not given)    -32.6
7. O=C(NCCCl)Nc1[nH]c(=O)ncc1Cl    -13.2
8. COC1CCCCC(=NNC(N)=O)CCCC1 (stereo not given)    -2.65
9. CCC(=O)[C@H]1CC[C@H]2[C@@H]3CCC4=CC(=O)CC[C@]4(C)[C@H]3CC[C@]12C    26.9
10. Cc1ccncc1.[O]=[Ge].[O]=[Ge].[O]=[Ge].[O]=[Ge].[O]=[Ge].[O]=[Ge][OH].[O]=[Ge][OH]    -35.4
11. CCCCCCCC/C=C\CCCCCCCC(=O)N(CCOC(=O)CCC(=O)OCCN(C(=O)CCCCCCC/C=C\CCCCCCCC)C1CCCCC1)C1CCCCC1    -9.25
12. c1ccc(-c2cnc3cccnc3n2)cc1    -24.7
13. O=C1CC[C@H](NC(=O)Cc2ccccc2)C(=O)N1    -6.55
14. OCc1ccc(-c2ccccc2)cc1    -14.6
15. COc1ccc(CC(C)C(C)Cc2ccc(OC)c(OC)c2)cc1OC (stereo not given)    9.15
16. CCCOc1ccc(C(N)=S)c2ccccc12    1.1
17. COC(=O)c1ccc(NCc2cc(O)ccc2O)cc1O    90.5
18. COC(=O)C(C)OP(=O)(OC(C)C(=O)OC)OC(C)C(=O)OC (stereo not given)    -3.55
19. COC(=O)C(=O)C1(c2ccccc2)CCCC(CN(C)C)=C1O (stereo not given)    -0.15
20. COC(=O)c1ncn(C(C(=O)OC)C(=O)OC)c1O    -6.75
21. CCCCC/C=C/C(CC)(C(=O)OCC)C(=O)OCC    20.9
22. O=C(/C(=C(/Br)I)c1ccccc1)c1ccccc1    16
23. O=c1[nH]c2cc3[nH]c4ncccc4c(=O)c3cc2[nH]1    0.15
24. O=C(O)c1cc2c(c(C(=O)O)c1O)CCCC2    -19.6
25. NC(=O)C1CCCCC1C(=O)O (stereo not given)    5

----------
Procedure text: NCI Yeast Anticancer Drug Screen. Data for the cln2 rad14 strain (AID 165);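 note: 0% = growth equal to vehicle treated cultures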
Condition info: S. cerevisiae cln2 rad14 strain, at 50.0 µM, hits give high values
The panel holds about 79,000 compounds, 15% with a hit somewhere; the sample as a whole holds those more often.
Returns MET if the recorded growth inhibition is greater than or equal to -20%, and NOT MET otherwise.

1) CC(=O)CC(C)(C)NNC(N)=S    NOT MET
2) N#CCCCN1C(=O)c2ccccc2C1=O    MET
3) N#CCOc1ccc(Cl)cc1    NOT MET
4) COc1ccc(C2C(C)C(=O)C(C)C(c3ccc(OC)cc3)N2N=O)cc1 (configuration not stated)    MET
5) CC(C)(C)NC(=O)Oc1cccnc1    NOT MET
6) COc1ccc(-c2cc(=O)c3ccc(C)nc3[nH]2)cc1    NOT MET
7) C=C1C(=O)OC2C=C(C)CC3C=C(CCC=C(C)CCC12)C(=O)O3 (configuration not stated)    MET
